- TEST TARGET: Endothelin receptor type B (Homo sapiens, UniProt P24530)
- Sequence (P24530 whole entry): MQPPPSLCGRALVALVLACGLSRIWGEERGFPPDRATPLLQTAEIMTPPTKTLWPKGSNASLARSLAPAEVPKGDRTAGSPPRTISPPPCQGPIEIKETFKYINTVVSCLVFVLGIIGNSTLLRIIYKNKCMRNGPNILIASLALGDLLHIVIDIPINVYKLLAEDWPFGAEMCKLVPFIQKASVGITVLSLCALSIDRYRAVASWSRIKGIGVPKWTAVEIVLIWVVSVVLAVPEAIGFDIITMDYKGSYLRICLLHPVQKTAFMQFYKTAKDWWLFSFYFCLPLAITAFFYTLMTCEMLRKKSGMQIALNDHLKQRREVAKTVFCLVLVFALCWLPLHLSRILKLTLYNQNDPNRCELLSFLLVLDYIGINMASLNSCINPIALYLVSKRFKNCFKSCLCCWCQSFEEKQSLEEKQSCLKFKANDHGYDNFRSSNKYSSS
- METHOD NOTES: Displacement of [125I]ET1 from human ETB receptor expressed in CHO cells
PARAMETER MEASURED: pIC50
For clarity, pIC50 is expressed as the negative log10 of concentration in mol/L.

• CC(=O)CC(=O)CCc1ccc(NC(=O)CCOCCOCCOCCOCCOc2ccc(CCC(=O)N(C)Cc3cc(-c4ncco4)ccc3-c3ccccc3S(=O)(=O)Nc3ccno3)cc2)cc1 = 5.31

// pIC50 lookup, key: `CN(Cc1cc(-c2ncco2)ccc1-c1ccccc1S(=O)(=O)Nc1ccno1)C(=O)CC(C)(C)C` 5.22

May I ask what pIC50 has been recorded for `CC(=O)CC(=O)CCc1ccc(NC(=O)CCOCCOCCOCCOCCOCCOCCOCCC(=O)N(C)Cc2cc(-c3ncco3)ccc2-c2ccccc2S(=O)(=O)Nc2ccno2)cc1` ? 5.33

###

- TEST TARGET: Endothelin receptor type B (Homo sapiens)
- METHOD NOTES: Displacement of [125I]ET1 from human ETB receptor expressed in CHO cells
Each entry below carries its recorded IC50.
Return type: number; implicit unit µM.

- CC(=O)CC(=O)CCc1ccc(NC(=O)CCOCCOCCOCCOCCOc2ccc(CC(=O)N(C)Cc3cc(-c4ncco4)ccc3-c3ccccc3S(=O)(=O)Nc3ccno3)cc2)cc1: 1.91
- CC(=O)CC(=O)CCc1ccc(NC(=O)CCOCCOCCOCCOCCOCCOCCOCCOCCOCCOCCOCCNC(=O)CCCC(=O)N(C)Cc2cc(-c3ncco3)ccc2-c2ccccc2S(=O)(=O)Nc2ccno2)cc1: 4.51

Let's switch to this molecule now.
Consider the molecule `CC(=O)CC(=O)CCc1ccc(NC(=O)CCOCCOCCOCCOCC(=O)N(C)Cc2cc(-c3ncco3)ccc2-c2ccccc2S(=O)(=O)Nc2ccno2)cc1` and give its measured IC50. 1.11

###

// reported IC50 per item
- TEST TARGET: Endothelin-1 receptor (Homo sapiens, UniProt P25101)
- Sequence (P25101 whole entry): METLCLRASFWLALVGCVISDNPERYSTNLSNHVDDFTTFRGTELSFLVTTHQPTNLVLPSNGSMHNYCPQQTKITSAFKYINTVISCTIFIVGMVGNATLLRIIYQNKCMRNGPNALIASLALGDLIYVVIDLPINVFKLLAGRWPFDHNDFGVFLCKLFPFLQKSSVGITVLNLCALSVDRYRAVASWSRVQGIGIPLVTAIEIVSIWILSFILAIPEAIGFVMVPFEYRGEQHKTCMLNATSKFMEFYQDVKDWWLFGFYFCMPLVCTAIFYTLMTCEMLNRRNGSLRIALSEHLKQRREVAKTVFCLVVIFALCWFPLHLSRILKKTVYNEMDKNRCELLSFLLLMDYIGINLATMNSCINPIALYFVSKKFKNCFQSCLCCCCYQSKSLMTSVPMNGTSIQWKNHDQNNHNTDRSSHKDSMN
- METHOD NOTES: Displacement of [125I]ET1 from human ETA receptor expressed in CHO cells
Report the figure in nM without appending any unit label.

Observe how each entry below is paired with its result.
* CC(=O)CC(=O)CCc1ccc(NC(=O)CCOCCOCCOCCOCC(=O)N(C)Cc2cc(-c3ncco3)ccc2-c2ccccc2S(=O)(=O)Nc2ccno2)cc1 | 1.6
* CC(=O)CC(=O)CCc1ccc(NC(=O)CCOCCOCCOCCOCCOc2ccc(CC(=O)N(C)Cc3cc(-c4ncco4)ccc3-c3ccccc3S(=O)(=O)Nc3ccno3)cc2)cc1 | 4.6
* CC(=O)CC(=O)CCc1ccc(NC(=O)CCOCCOCCOCCOCCOCCOCCOCCC(=O)N(C)Cc2cc(-c3ncco3)ccc2-c2ccccc2S(=O)(=O)Nc2ccno2)cc1 | 8
* CN(Cc1cc(-c2ncco2)ccc1-c1ccccc1S(=O)(=O)Nc1ccno1)C(=O)CC(C)(C)C | 1
* CC(=O)CC(=O)CCc1ccc(NC(=O)CCOCCOCCOCCOCCOc2ccc(CCC(=O)N(C)Cc3cc(-c4ncco4)ccc3-c3ccccc3S(=O)(=O)Nc3ccno3)cc2)cc1 | 21.6
* CC(=O)CC(=O)CCc1ccc(NC(=O)CCOCCOCCOCCOc2ccc(-c3ccccc3S(=O)(=O)Nc3ccno3)c(CN(C)C(=O)CC(C)(C)C)c2)cc1 | 44.9

// below: IC50 requested for another molecule
Reported IC50 for `CC(=O)CC(=O)CCc1ccc(NC(=O)CCOCCOCCOCCOCCOCCOCCOCCOCCOCCOCCOCCNC(=O)CCCC(=O)N(C)Cc2cc(-c3ncco3)ccc2-c2ccccc2S(=O)(=O)Nc2ccno2)cc1` : what is it? 7.7
